All values here come from the supplement of paper PMC9732359.

Recorded protein stability index by entry
# experimental_details: protein stability index of a GFP-peptide fusion (yeast GPS) (PSI 1-4); higher = more stable; sorted into four equal gates, so the index is relative within each strain
# setup_conditions: pdr5∆
measurement_type: protein stability index

* EVFSRPEWMILTCLPVP [RPO21] | 1.48
* RAKAMKFADGFLIHSGQ [RPS3] | 3.03
* RLRKRVTIIPLDKIYTR [SMC2] | 1.66
* EDLLECLDRCKEQYNRY [MTR3] | 3.46
* NSCFSDGSQQNLQQDKT [REC8] | 2.76
* KGEVVLVNIRTQTSKEQ [ITC1] | 2.5
* KGVYLILSEILCQINKC [YML103C/NUP188] | 1.56
* SDKESNAYGFIEWCSRC [YJL039C/NUP192] | 2.79
* ESLKKSPIFEVLSDDAK [ARP9] | 3.15
* SIVHINSQERVQDLGSA [SIR2] | 3.14
* TTFTKVAAKWNTSLISL [PRP8] | 2.39
* SYHLWPSFTDEQWITIE [PRP8] | 2.66
* SIPNLFPTDLEIFQLFT [SWI1] | 2.22
* NSFYYTSLLYLSTLEPS [RPN9] | 1.56
* MDMNEIEDKENSESTTQ [RPT5] | 3.25
* QFKSKEVEKAHPIRLYT [PRP8] | 2.88
* TRPYILERARDVNIVNR [YCG1] | 2.78
* SNPSGNYTGWKAISVGA [PRE9] | 2.5
* VSTKTNEYRLAFYQVTP [RPL22A] | 2.19
* AIMKPYYLWTGKQVFSL [RPO31] | 2.91
* LNHVVSLIENKKAKLVL [RPL8B] | 3.54
* SRVINVVRAASSLASQD [RRP6] | 2.47
* ITKMLASDESLLRYGGA [RPN2] | 3.41
* CKSLISENEDTKDLLSK [CSE2] | 3.21
* QALQMKAMDIPIGRHEE [SWP82] | 2.29
* TSLFHKFILSGFIFTSM [RRI2] | 1.66
* PQYQYQRRYVIKEKVQF [ITC1] | 1.88
* KQKSWVPSYIHVEKERA [YIL149C/MLP2] | 2.25
* NEKMQLLKDIFANNLKS [SIR4] | 2.41
* SSDVDMDDEEWRSKRIE [RPC53] | 3.17

---

Recorded protein stability index by entry
# experimental_details: protein stability index of a GFP-peptide fusion (yeast GPS) (PSI 1-4); higher = more stable; sorted into four equal gates, so the index is relative within each strain
# setup_conditions: ubr1∆
measurement_type: protein stability index

• FFYLRISKKLQFSYLSS [PCI8] = 1.33
• VKLQMIKFGGLIIQKIP [ECM29] = 2.37
• MKIQAGQLGLDDNDVPG [YLR018C/POM34] = 3.11
• SEDHSFRKVKLRVDEVQ [RPS1B] = 3.1
• NNQSKEKADYEDEMMHE [RPN12] = 2.53
• DGHLQFLNDVIPTTKNL [DLS1] = 3.04
• INSGTFVKVTKATLELL [RPL7A] = 2.9
• LQEKFLNQIATLKIHLK [IRR1] = 1.03
• LIRRLVRVGVLSEDKKK [RPS9A] = 1.12
• GSEILGDLKLQVLLDEE [RPO21] = 3.28
• AEKELEAEIECFDSTTG [RRP40] = 2.66
• KLLQLAGVEDVYTQSNG [RPS2] = 3.13
• EEDYNEFNSIDRVIFRV [PRP8] = 2.94
• QQLLKGLSLSFSKKLDL [DSN1] = 3.16

---

# experimental_details: protein stability index of a GFP-peptide fusion (yeast GPS) (PSI 1-4); higher = more stable; sorted into four equal gates, so the index is relative within each strain
# setup_conditions: pdr5∆
Recorded protein stability index by entry
measurement_type: protein stability index

- ENGLQLSDNAKTLHSQM [RPC34]: 3.27
- PGHVNFMDETAVALAAS [SNU114]: 2.7
- QKTVNLKNIMKVSDPYV [RPN4]: 2
- AVALAASDLVLIVIDVV [SNU114]: 2.5
- SMGTMICGYTRKEGPTI [PRE2]: 3.21
- RIYTNSFIDIMEVLGIE [RPO21]: 2.94
- DSVTTETGKLLSGLAQR [BRN1]: 2.87
- VGDIVDIKANGSIQKGM [RPL21A]: 1.9
- KIPDTYTANTSAQSIAS [YAR002W/NUP60]: 2.13
- AVKYGLNHVVSLIENKK [RPL8B]: 2.37
- CGAGVFLANHKDRLYCG [RPS31]: 1.46
- KDILVKTGITKKDEDEE [PRE9]: 3.27
- LSNIEAQFLRSVVHPGE [RPO21]: 2.73
- VLKVYSMINNSNQAVGQ [SRB8]: 2.78

---

# experimental_details: protein stability index of a GFP-peptide fusion (yeast GPS) (PSI 1-4); higher = more stable; sorted into four equal gates, so the index is relative within each strain
# setup_conditions: doa10∆
Label false if protein stability index falls below 3; label true in every other case.

• KAMSSRAGVSQVLNRYT [RPB2] = true
• LSYISALGMMTRISSQF [RET1] = false
• DDVRRAAVIALGFVLLR [RPN2] = false
• AEEEEESDDDMGFGLFD [RPP0] = true
• TLASLIRYNSVEIQEVP [RPC82] = false
• LISNLLFSKNRNEVLES [YCS4] = false
• MKIQAGQLGLDDNDVPG [YLR018C/POM34] = true
• EIKDAETSCDNYHPMNI [SMC4] = false
• TERVVEIGPSPTLAGMA [FAS2] = false
• SPKPYAVKYGLNHVVAL [RPL8A] = false
• GRSDSNTEEKAELQSNL [YGL100W/SEH1] = false

---

# experimental_details: protein stability index of a GFP-peptide fusion (yeast GPS) (PSI 1-4); higher = more stable; sorted into four equal gates, so the index is relative within each strain
# setup_conditions: ubr1∆
measurement_type: protein stability index

* EVNKSELYLTAELSEIW [SIR3] | 3.24
* KIHLYEKKLEDYCRILS [YGL172W/NUP49] | 1.78
* EKAIPKDQRATTPYMTK [RPO26] | 3.03
* ENDHERGFFHLNEALLQ [CSN12] | 3.06
* VAKLANWFLEVYASGNP [YML031W/NDC1] | 1.12
* QKRLEAGALNLASPEVK [DIS3] | 2.82
* RQLQYETLGDILKRDFE [ECM29] | 3.02
* PVFHKKAKTTKKVVLRL [RPL42A] | 1.98
* KTNFQDVILDYQTKKFY [REC8] | 1.24
* ASLVDYVQVRQPIFVAH [RPS5] | 1.67
* KIKFDESSKLMTVTKVS [BRR2] | 1.35
* HILPEVPPVENFPVRQW [TAF14] | 3.05
* NNGDKDHLKLVSLFSNL [YIL149C/MLP2] | 2.44
* VKQLENVSSNIVKNAEQ [RPS20] | 2.86
* LSKVFSDVLFEFTKINT [YJL039C/NUP192] | 2.94
* LNSLTNLLSKRNQEKKM [SNM1] | 2.7
* PGIMLRQMNLVITLLNN [YCS4] | 1.19
* IPVYCFSHPAHQQRMSR [YCG1] | 2.04
* SEFANQNQGGAQAPFDI [ROX3] | 3.48
* LYHHTTKTILSGTDGST [SRP72] | 2.83
* ATGNESQDATKVDATPE [YLR335W/NUP2] | 2.94
* APIPKGRVKYTKRQKHF [POP1] | 1.77
* SDTLKEFKIEQNNEQNP [YDL116W/NUP84] | 3.3
* SDSSKPAFSFGTKSNEK [YJL041W/NSP1] | 2.75
* NWLSIFNDFSNIKTSEW [REC8] | 2.91
* QIDHFKSMLSKPETLSI [SWI3] | 2.4
* LEIRNKICSSEMINEQK [RGR1] | 2.9
* TKISTLAVKVHGGSRYA [QCR2] | 1.41
* KPTSPFIDSICKLFDKI [SRB8] | 1.41
* RLISQSLLASKSTYRTP [RIP1] | 2.45

---

Recorded protein stability index by entry
# experimental_details: protein stability index of a GFP-peptide fusion (yeast GPS) (PSI 1-4); higher = more stable; sorted into four equal gates, so the index is relative within each strain
# setup_conditions: san1∆
measurement_type: protein stability index

• NERRKDLAERASELDES [SMC3] = 1.98
• FHNAVFNSFRRFKSQFL [QCR8] = 1.6
• ERGQKVKNVKNSDLEFN [ARP9] = 2.17
• FPESIWKDFTVEIAFLF [YCG1] = 2.33
• LADRDEFIQDSAARGLS [ECM29] = 1.2
• RTDQYTIDNIDSENFSF [YMR129W/POM152] = 2.91
• RDGVLTVTLNKNREVVQ [RRP45] = 2.81
• NKEMETQRIMTNVIAFA [YLR018C/POM34] = 1.99
• MKQPYVFVKKHHELIKV [SSN2] = 1.21
• VAGAIRAGIIIAKLSVI [RPS2] = 1.4
• RSRKTVKAQRPITGASL [RPL24A] = 3.14
• TTARNDLGVVFARAANG [CSL4] = 1.87
• EDDEFEDFPIDTWANGE [SEM1] = 2.85
• SEFANQNQGGAQAPFDI [ROX3] = 3.28
• QQEAKYRNNEPAGFTHK [YDL088C/ASM4] = 2.6
• KENGQLIGAATKFKGGK [SEC65] = 1.54
• SILEEKIAVLNNDKREI [SMC1] = 3.25
• GISSTLVSANNDNNSPH [YLR018C/POM34] = 3.01
• YVAPTKKEYIELDILNK [SRB4] = 2.74
• ITLLTRQRELLIAHQRS [GRR1] = 2.01
• RDRKLITDKGTVDGRLY [YJL039C/NUP192] = 3.19
• RTMYFILDGQDVEENRS [YJR042W/NUP85] = 3.22
• HTLCNRCGRRSFHVQKK [RPL37A] = 2.83
• GNGNVSESDIINNLPPE [YCG1] = 2.95
• TPPDDLHPYVPSSKPQE [SRB8] = 2.93
• SVKFTHIAHTLPEKVNF [SSN2] = 2.2
• QIPQQLYQSLTPQQLQM [SNF5] = 2.57
• TDLRLSTNGLGMCQLYF [SNU114] = 2.98
• KKFLRVRIFTKIESEDD [SRB4] = 1.16
• EQTTGGNNKDLKNTMQY [RPB4] = 2.65
